Assignment: determine reported pIC50 for the given compounds.
- system.name: Macrophage migration inhibitory factor (Homo sapiens)
- Sequence (P14174 whole entry): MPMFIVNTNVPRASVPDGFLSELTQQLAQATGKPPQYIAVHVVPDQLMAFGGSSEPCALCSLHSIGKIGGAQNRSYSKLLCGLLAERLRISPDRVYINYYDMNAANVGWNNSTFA
- test.description: Inhibition of dopachrome tautomerase activity of human recombinant MIF
pIC50: −log10 of the molar value.

Value of pIC50 reported for the compound O=C(CCc1nc(C2CC(c3ccc(O)c(F)c3)=NO2)no1)NC1CCCCC1 (configuration not stated) is < 4.00

Value of pIC50 reported for the compound COC(=O)CCc1nc(C2CC(c3ccc(O)c(F)c3)=NO2)no1 (configuration not stated) is < 4.00

Value of pIC50 reported for the compound COc1ccc(C2=NOC(c3noc(CCC(=O)O)n3)C2)cc1F (configuration not stated) is < 4.00

Value of pIC50 reported for the compound Cc1nc(C2CC(c3ccc(O)c(F)c3)=NO2)no1 (configuration not stated) is < 4.00

Value of pIC50 reported for the compound Oc1ccc(C2=NOC(c3noc(C(F)(F)F)n3)C2)cc1F (configuration not stated) is < 4.00

Value of pIC50 reported for the compound O=C(NCCC1CC(c2ccc(O)c(F)c2)=NO1)C(F)(F)F (configuration not stated) is < 4.00

Value of pIC50 reported for the compound Oc1ccc(C2=NOC(c3noc(-c4cccc(O)c4O)n3)C2)cc1F (configuration not stated) is < 4.00
